Taken from patent US11952365B2.

Entries and their measured IC50 follow.
# Assayed target: UniProt P0DTD1
# Assay notes: SARS-CoV-2 3CLpro protease assay (duplex, SAMDI-MS)
# Assay type: biochemical
# Set-up: For the duplex assay, 3CLpro and HRV3C was added
# Condition context: 3CLpro, 30 mins preincubation, class symbols; read-out: SARS-Cov-2 IC50
Value kind: IC50

- Cn1ccc2[nH]c(C(=O)N3C[C@@H]4CCC[C@@H]4[C@H]3C(=O)N[C@@H](C[C@@H]3CCNC3=O)C(=O)CO)cc2c1=O: 20 to 200 nM
- N#Cc1cccc2[nH]c(C(=O)N3C[C@@H]4CCC[C@@H]4[C@H]3C(=O)N[C@@H](C[C@@H]3CCNC3=O)C(=O)CO)cc12: 20 to 200 nM
- CCOC(=O)c1cc(C(=O)N2C[C@@H]3CCC[C@@H]3[C@H]2C(=O)N[C@H](C#N)C[C@@H]2CCNC2=O)[nH]c1C: 200 to 2000 nM
- COc1cc(C(F)(F)F)cc2[nH]c(C(=O)N3C[C@@H]4CCC[C@@H]4[C@H]3C(=O)N[C@@H](C[C@@H]3CCNC3=O)C(=O)CO)cc12: < 20 nM
- COc1cccc2[nH]c(C(=O)N3CC4(C5CC5)CC3(C(=O)N[C@@H](C[C@@H]3CCNC3=O)C(=O)C(=O)NC3CC3)C4)cc12: 20 to 200 nM
- COc1cccc2[nH]c(C(=O)N3C[C@]4(C[C@H]3C(=O)N[C@@H](C[C@@H]3CCCNC3=O)C(=O)COCc3ccccc3)CC4(F)F)cc12 [Compound 47A]: 20 to 200 nM

---

# Assayed target: HRV3C (Human rhinovirus 14, UniProt P03303)
# Assay notes: HRV3C protease assay (duplex, SAMDI-MS)
# Type: biochemical, HRV
# Condition context: HRV3C, 30 mins preincubation, class symbols; read-out: HRV IC50
Item-by-item account of IC50
Value kind: IC50

- O=C(NCc1ccccc1)C(=O)[C@H](C[C@@H]1CCNC1=O)NC(=O)[C@@H]1C[C@@H](C2CCCCC2)CN1C(=O)c1cc2ccccc2[nH]1: 0.2 to 2 µM
- O=C(c1ccccc1)c1c[nH]c(C(=O)N2C[C@@H]3CCC[C@@H]3[C@H]2C(=O)N[C@@H](C[C@@H]2CCNC2=O)C(=O)CO)c1: 2 to 20 µM
- COc1cccc2[nH]c(C(=O)N3C[C@@H]4CCC[C@@H]4[C@H]3C(=O)N[C@@H](CC3CC(C)(C)NC3=O)C(=O)CO)cc12 (relative stereo): 0.2 to 2 µM
- O=C(NC1CC1)C(=O)[C@H](C[C@@H]1CCNC1=O)NC(=O)[C@@H]1CC2(CCN1C(=O)c1cc3ccccc3o1)CC2: 0.2 to 2 µM
- COc1cccc2[nH]c(C(=O)N3C[C@@H]4CCC[C@@H]4[C@H]3C(=O)NC(C[C@@H]3CCCNC3=O)C(=O)C(=O)NC3CC3)cc12 (stereo partly drawn): 0.02 to 0.2 µM
- COc1cccc2[nH]c(C(=O)N3C[C@]4(C[C@H]3C(=O)NC(C[C@@H]3CCCNC3=O)C(=O)C(N)=O)CC4(F)F)cc12 (stereo partly drawn): 0.2 to 2 µM
- COc1cccc2[nH]c(C(=O)N3C[C@@H]4CCC[C@@H]4[C@H]3C(=O)NC(C[C@@H]3CCNC3=O)C(=O)C(N)=O)cc12 (stereo partly drawn): 0.2 to 2 µM
- C[C@@H]1C[C@@H](C(=O)N[C@@H](C[C@@H]2CCNC2=O)C(=O)C(=O)NCc2ccccc2)N(C(=O)c2cc3ccccc3[nH]2)C1: 2 to 20 µM
- Cn1c(C(=O)N2CCC3(CC3)C[C@H]2C(=O)N[C@@H](C[C@@H]2CCNC2=O)C(=O)C(=O)NC2CC2)cc2ccccc21: 2 to 20 µM
- COc1cccc2[nH]c(C(=O)N3C[C@H]4[C@@H]([C@H]3C(=O)N[C@@H](C[C@@H]3CCNC3=O)C(=O)C(N)=O)C4(C)C)cc12: 0.2 to 2 µM
- COc1cc(Cl)c(Cl)c2[nH]c(C(=O)N3C[C@@H]4CCC[C@@H]4[C@H]3C(=O)N[C@@H](C[C@@H]3CCNC3=O)C(=O)CO)cc12: 2 to 20 µM
- COc1cccc2[nH]c(C(=O)N3CC4(CC4)C[C@H]3C(=O)N[C@@H](C[C@@H]3CCCNC3=O)C(=O)CO)cc12: 2 to 20 µM

---

# Assayed target: HRV3C (Human rhinovirus 14, UniProt P03303)
# Assay notes: HRV3C protease assay (duplex, SAMDI-MS)
# Format: biochemical, HRV
# Condition context: HRV3C, 30 mins preincubation, bound; read-out: HRV IC50
# Method: Protease assays were performed in 384-well low volume polypropylene microtiter plates at ambient temperature. […] Internal standard peptides were added in 20 mM Hepes pH 8.0 for quantitation of the protease products. […] SAMDI-MS was performed using reflector-positive mode on an AB Sciex TOF-TOF 5800 System (AB Sciex, Framingham, MA) with 400 shots/spot analyzed in a random raster sampling. […] Assay robustness was determined by Z-Factor. […]
pIC50: −log10 of the molar value.
Value kind: pIC50

• O=C1NCC[C@H]1C[C@H](NC(=O)[C@@H]1[C@H]2CCC[C@H]2CN1C(=O)c1cc2c([nH]1)CCCC2)C(=O)CO [Compound 83] = < 5.00
• COc1cccc2[nH]c(C(=O)N3C[C@@H]4CCC[C@@H]4[C@H]3C(=O)N[C@@H](CN3CC[C@H](O)C3=O)C(=O)C(=O)NC3CC3)cc12 [Compound 115] = < 5.00
• COc1cccc2[nH]c(C(=O)N3Cc4ccccc4[C@H]3C(=O)N[C@@H](C[C@@H]3CCCNC3=O)C(=O)CO)cc12 [Compound 73_1] = < 5.00

---

# Test system: human beta-coronavirus OC43
# Assay notes: microbe, parasite or virus in culture
# Assay type: cell-based
# Condition context: Betacoronavirus 1, OC43, HeLa, 144 h, OC43 in HeLa cells, 6 days at 33° C., class symbols; read-out: EC50
pEC50: −log10 of the molar value.
Value kind: pEC50

* COc1cccc2[nH]c(C(=O)N3C[C@]4(C[C@H]3C(=O)N[C@@H](C[C@@H]3CCCNC3=O)C(=O)C(=O)NC(C)C)CC4(F)F)cc12 | 6.00 to 7.00
* COc1cccc2[nH]c(C(=O)N3C[C@H]4[C@@H]([C@H]3C(=O)N[C@@H](C[C@@H]3CCNC3=O)C(=O)CO)C4(C)C)cc12 | 6.00 to 7.00
* O=C1NCC[C@H]1C[C@H](NC(=O)[C@@H]1[C@H]2CCC[C@H]2CN1C(=O)c1cc2c(Cl)cc(OCc3ccccc3)cc2[nH]1)C(=O)CO | > 7.00
* COc1cccc2[nH]c(C(=O)N3C[C@@H]4CCC[C@@H]4[C@H]3C(=O)NC(C[C@@H]3CCCNC3=O)C(=O)C(=O)NC3CC3)cc12 (some centres unmarked) | 6.00 to 7.00
* COc1cc(Cl)c(Cl)c2[nH]c(C(=O)N3C[C@@H]4CCC[C@@H]4[C@H]3C(=O)N[C@@H](C[C@@H]3CCNC3=O)C(=O)CO)cc12 | 6.00 to 7.00
* COc1cccc2[nH]c(C(=O)N3C[C@@H]4CCC[C@@H]4[C@H]3C(=O)N[C@@H](CC3CC(C)(C)NC3=O)C(=O)COCc3ccccc3)cc12 (relative stereo) | > 7.00
* COc1nccc2[nH]c(C(=O)N3C[C@@H]4CCC[C@@H]4[C@H]3C(=O)N[C@@H](C[C@@H]3CCNC3=O)C(=O)CO)cc12 | 5.00 to 6.00
* COc1cccc2[nH]c(C(=O)N3C[C@@H]4CCC[C@@H]4[C@H]3C(=O)N[C@H](CN3CCCC3=O)C(=O)C(=O)NC3CC3)cc12 (single isomer, unassigned) [Compound 113B] | 5.00 to 6.00
* CC(C)OCCNC(=O)C(=O)[C@H](C[C@@H]1CCNC1=O)NC(=O)[C@@H]1[C@H]2CCC[C@H]2CN1C(=O)c1cc2c(Cl)cc(Cl)cc2[nH]1 | 6.00 to 7.00
* COc1cccc2[nH]c(C(=O)N3C[C@@H]4CCC[C@@H]4[C@H]3C(=O)NC(C[C@@H]3CCNC3=O)C(=O)C(N)=O)cc12 (some centres unmarked) | 4.00 to 5.00
* COc1cccc2[nH]c(C(=O)N3C[C@H]4[C@@H]([C@H]3C(=O)N[C@@H](C[C@@H]3CCCNC3=O)C(=O)CO)C4(C)C)cc12 | 6.00 to 7.00

---

# Tested on: human beta-coronavirus OC43
# Assay notes: microbe, parasite or virus in culture
# Assay type: cell-based
# Condition context: Betacoronavirus 1, OC43, HeLa, 144 h, OC43 in HeLa cells, 6 days at 33° C., class symbols; read-out: EC50
# Lookup of reported EC50 keyed by entry
Value kind: EC50

- O=C[C@H](C[C@@H]1CCNC1=O)NC(=O)[C@@H]1[C@H]2CCC[C@H]2CN1C(=O)c1cc2ccccc2[nH]1: 1 to 10 µM
- O=C1NCC[C@H]1C[C@H](NC(=O)[C@@H]1[C@H]2CCC[C@H]2CN1C(=O)c1cc2c([nH]1)CCCC2)C(=O)CO: 0.1 to 1 µM
- COc1cccc2[nH]c(C(=O)N3C[C@@H]4CCC[C@@H]4[C@H]3C(=O)N[C@@H](C[C@@H]3CCNC3=O)C(=O)c3ncc[nH]3)cc12: 10 to 100 µM
- O=C1NCC[C@H]1C[C@H](NC(=O)[C@@H]1[C@H]2CCC[C@H]2CN1C(=O)c1cc2c(Cl)cccc2[nH]1)C(=O)COCc1ccccc1 [Compound 60A]: < 0.1 µM
- O=C1NCC[C@H]1C[C@H](NC(=O)[C@@H]1[C@H]2CCC[C@H]2CN1C(=O)c1cc2ncccc2[nH]1)C(=O)CO: 1 to 10 µM
- CC1(C)[C@@H]2[C@@H](C(=O)NC(C[C@@H]3CCNC3=O)C(=O)C(=O)NCc3ccccc3)N(C(=O)c3cc4ccccc4[nH]3)C[C@@H]21 (stereo partly drawn): 1 to 10 µM
